# experimentalTarget: T1, PUF4 RNA-binding domain (Saccharomyces cerevisiae, UniProt P25339 537-888)
# T1 sequence: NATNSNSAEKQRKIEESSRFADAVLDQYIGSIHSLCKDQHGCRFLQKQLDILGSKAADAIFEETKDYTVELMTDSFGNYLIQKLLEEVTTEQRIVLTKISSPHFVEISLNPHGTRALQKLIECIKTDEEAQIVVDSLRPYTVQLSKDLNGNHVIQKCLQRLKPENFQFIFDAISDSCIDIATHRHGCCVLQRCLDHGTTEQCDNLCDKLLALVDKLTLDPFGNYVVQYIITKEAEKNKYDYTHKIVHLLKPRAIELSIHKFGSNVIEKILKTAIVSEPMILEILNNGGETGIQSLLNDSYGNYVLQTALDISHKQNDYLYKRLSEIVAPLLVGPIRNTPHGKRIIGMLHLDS
# protocolNotes: Mg; RNA-MaP; 20 mM Na-HEPES pH 7.4, 30 mM KOAc, 0.75 mM MgCl2, 0.1% Tween-20, 5% glycerol, 0.1 mg/mL BSA, 2 mM DTT; 25 C; 0.0125-409.6 nM protein
# experimentalSetup: tags: N-His6-TEV cleaved; C-SNAP kept, Cy3B-labelled; label: tethered on chip by stalled RNA polymerase
measuredAttribute: pKd
As a rule, pKd stands for the negative log10 of the concentration, concentration in M.

Worked examples follow.
binder	pKd
UCUCUUUUUAUAUAUAGCUCUCUU (ssRNA) [Id_ii_S1_P3E.3_K3.2_C3.2_[C-2T]_H3.2_A3.1_F3.1_T3.2_[T9G]_[A10C]]	6.31
Ic_S2_P4E.1_K4.1_C4.1_H4.1_A4.1_[A6T]_[T7G]_F4.1_[A9T]_T4.1 (ssRNA) RNA: UUUGAUUAAUAUGAUAUCGUUCUUUCUUGUAUUGUUUUCUUUCUCGAUAUCAUAUUAAUCUUU	7.24
Id_ii_S2_P5E.2_K5.1_C5.2_[C-2A]_[T-1A]_H5.1_A5.1_F5.1_T5.2_[T11A]_[A12T] (ssRNA) RNA: UUUGAUUAAUAUGAUAUCGUUCUUUCUAAUGUAUUAUUAAUUUCUUUCUCGAUAUCAUAUUAAUCUUU	7.69
Ic_S4_P4E.1_K4.1_C4.1_H4.1_A4.1_[T5C]_[A6G]_[T7C]_F4.1_[T8C]_[A9C]_T4.1 (ssRNA) RNA: UUUGACAACUGAUCGUUCUUUCUUGUACGCCCUUCUUUCUCGAUCAGUUGUCUUU	6.85

Lookup result for UCUCUUCUUGUAUAUAUCUAUCUCUU (ssRNA) [Ie_S1_P3E.2_K3.1_C3.2_H3.1_A3.1_F3.1_[+8TC]_T3.2] ; measured pKd: 8.03

Lookup result for UCUCUUUUUGUAUAUAUAUCUCUU (ssRNA) [Id_ii_S1_P3E.2_K3.1_C3.2_[C-2T]_H3.1_A3.1_F3.1_T3.2] ; measured pKd: 8.34

Lookup result for Id_ii_S2_P5E.4_K5.3_C5.2_[C-2T]_H5.3_A5.1_F5.1_T5.2_[T11C]_[A12T] (ssRNA) RNA: UUUGAUUAAUAUGAUAUCGUUCUUUCUUUACACUUAUUACUUUCUUUCUCGAUAUCAUAUUAAUCUUU ; measured pKd: 5.82
